TEST DETAILS: UV/Vis absorbance at 400 nm and Yellowness Index of the ring-open isomer
Format: physicochemical
TEST CONDITIONS: 2×10^−5 M solution, 1 cm pathlength cuvette
Measured Abs @ 400 nm, RO (Absorption of ring-open isomer at 400 nm), listed per entry.
# answer = number (no unit)

{"MOLECULE": "CC(=O)Oc1cc2oc(-c3ccc(C(C)(C)C)cc3)c(C3=C(c4cc(-c5cc(C(C)(C)C)cs5)sc4-c4cc(C(C)(C)C)cs4)C(F)(F)C(F)(F)C3(F)F)c2cc1OC(C)=O [Chromophore S396]", "VALUE MEASURED": 0.08}
{"MOLECULE": "COc1cc2oc(-c3ccc(C(C)(C)C)cc3)c(C3=C(c4cc(-c5cc6c(s5)C(C)(C)CCCC6(C)C)sc4-c4cc5c(s4)C(C)(C)CCCC5(C)C)C(F)(F)C(F)(F)C3(F)F)c2cc1OC [Chromophore S405]", "VALUE MEASURED": 0.143}
{"MOLECULE": "COc1ccc2oc(-c3ccc(C(C)(C)C)cc3)c(C3=C(c4cc(-c5cc6c(s5)C(C)(C)CCC6(C)C)sc4-c4cc5c(s4)C(C)(C)CCC5(C)C)C(F)(F)C(F)(F)C3(F)F)c2c1 [Chromophore S400]", "VALUE MEASURED": 0.125}
{"MOLECULE": "COCCCOc1cc2oc(-c3ccc(C(C)(C)C)cc3)c(C3=C(c4cc(-c5cc6c(s5)C(C)(C)CCC6(C)C)sc4-c4cc5c(s4)C(C)(C)CCC5(C)C)C(F)(F)C(F)(F)C3(F)F)c2cc1OCCCOC [Chromophore S388]", "VALUE MEASURED": 0.132}
{"MOLECULE": "COCCOc1cc2oc(-c3ccc(C(C)(C)C)cc3)c(C3=C(c4cc(-c5ccc(C(C)(C)C)s5)sc4-c4ccc(C(C)(C)C)s4)C(F)(F)C(F)(F)C3(F)F)c2cc1OCCOC [Chromophore S364]", "VALUE MEASURED": 0.105}

QUERY: What does the data say about its Abs @ 400 nm, RO (Absorption of ring-open isomer at 400 nm)? Entry: COc1cc2oc(-c3ccc(C(C)(C)C)cc3)c(C3=C(c4cc(-c5ccc(C(C)(C)C)s5)sc4-c4ccc(C(C)(C)C)s4)C(F)(F)C(F)(F)C3(F)F)c2cc1OC [Chromophore S340]
RESULT: 0.128

QUERY: What does the data say about its Abs @ 400 nm, RO (Absorption of ring-open isomer at 400 nm)? Entry: CC(=O)Oc1cc2oc(-c3ccc(C(C)(C)C)cc3)c(C3=C(c4cc(-c5ccc(C(C)(C)C)s5)sc4-c4ccc(C(C)(C)C)s4)C(F)(F)C(F)(F)C3(F)F)c2cc1OC(C)=O [Chromophore S367]
RESULT: 0.102

QUERY: What does the data say about its Abs @ 400 nm, RO (Absorption of ring-open isomer at 400 nm)? Entry: CCOC(=O)CCCOc1cc2oc(-c3ccc(C(C)(C)C)cc3)c(C3=C(c4cc(-c5ccc(C(C)(C)C)s5)sc4-c4sc(C(C)(C)C)cc4C)C(F)(F)C(F)(F)C3(F)F)c2cc1OCCCC(=O)OCC [Chromophore S383]
RESULT: 0.144

QUERY: What does the data say about its Abs @ 400 nm, RO (Absorption of ring-open isomer at 400 nm)? Entry: COc1cc2oc(-c3ccc(C(C)(C)C)cc3)c(C3=C(c4cc(-c5ccc(C(C)(C)C)s5)sc4-c4sc(C(C)(C)C)cc4C)C(F)(F)C(F)(F)C3(F)F)c2cc1OC [Chromophore S378]
RESULT: 0.127

QUERY: What does the data say about its Abs @ 400 nm, RO (Absorption of ring-open isomer at 400 nm)? Entry: CCOC(=O)CCCOc1cc2oc(-c3ccc(C(C)(C)C)cc3)c(C3=C(c4cc(-c5cc(C(C)(C)C)cs5)sc4-c4cc(C(C)(C)C)cs4)C(F)(F)C(F)(F)C3(F)F)c2cc1OCCCC(=O)OCC [Chromophore S386]
RESULT: 0.113

QUERY: What does the data say about its Abs @ 400 nm, RO (Absorption of ring-open isomer at 400 nm)? Entry: "CC(C)(C)c1ccc(-c2oc3cc(OCCN4C(=O)CCC4=O)c(OCCN4C(=O)CCC4=O)cc3c2C2=C(c3cc(-c4cc(C(C)(C)C)cs4)sc3-c3cc(C(C)(C)C)cs3)C(F)(F)C(F)(F)C2(F)F)cc1"
RESULT: 0.136

QUERY: What does the data say about its Abs @ 400 nm, RO (Absorption of ring-open isomer at 400 nm)? Entry: "COCCCOc1cc2oc(-c3ccc(C(C)(C)C)cc3)c(C3=C(c4cc(-c5cc(C(C)(C)C)cs5)sc4-c4cc(C(C)(C)C)cs4)C(F)(F)C(F)(F)C3(F)F)c2cc1OCCCOC"
RESULT: 0.103

QUERY: What does the data say about its Abs @ 400 nm, RO (Absorption of ring-open isomer at 400 nm)? Entry: "COc1cc2oc(-c3ccc(C(C)(C)C)cc3)c(C3=C(c4cc(-c5cc6c(s5)C(C)(C)CCC6(C)C)sc4-c4cc5c(s4)C(C)(C)CCC5(C)C)C(F)(F)C(F)(F)C3(F)F)c2cc1OC"
RESULT: 0.131

* * *

Measured YI (Yellowness Index), listed per entry.
TEST DETAILS: UV/Vis absorbance at 400 nm and Yellowness Index of the ring-open isomer
Assay type: physicochemical
# answer = number (no unit)

{"COMPOUND": "COc1ccc2c(C3=C(c4cc(-c5ccc(C(C)(C)C)s5)sc4-c4ccc(C(C)(C)C)s4)C(F)(F)C(F)(F)C3(F)F)c(-c3ccc(C(C)(C)C)cc3)oc2c1", "YI (Yellowness Index)": 3.32}

QUERY: What does the data say about its YI (Yellowness Index)? Entry: "CC(C)(C)c1ccc(-c2oc3cc(OCCN4C(=O)CCC4=O)c(OCCN4C(=O)CCC4=O)cc3c2C2=C(c3cc(-c4cc(C(C)(C)C)cs4)sc3-c3cc(C(C)(C)C)cs3)C(F)(F)C(F)(F)C2(F)F)cc1"
RESULT: 4.72

QUERY: What does the data say about its YI (Yellowness Index)? Entry: CCOC(=O)CCCOc1cc2oc(-c3ccc(C(C)(C)C)cc3)c(C3=C(c4cc(-c5ccc(C(C)(C)C)s5)sc4-c4ccc(C(C)(C)C)s4)C(F)(F)C(F)(F)C3(F)F)c2cc1OCCCC(=O)OCC [Chromophore S374]
RESULT: 6.76

QUERY: What does the data say about its YI (Yellowness Index)? Entry: COc1cc2oc(-c3ccc(C(C)(C)C)cc3)c(C3=C(c4cc(-c5ccc(C(C)(C)C)s5)sc4-c4sc(C(C)(C)C)cc4C)C(F)(F)C(F)(F)C3(F)F)c2cc1OC [Chromophore S378]
RESULT: 4.94

* * *

Measured Sulfone (%), listed per entry.
TEST DETAILS: Photostability: xenon arc weathering of chromophore solutions, LCMS analysis
Assay type: physicochemical
TEST CONDITIONS: 10 wt % in Rhodiasolv IRIS; xenon arc, 82° C. bp; linearly interpolated to 0.5 MJ/m2 @ 340 nm
Reply with just the number (in %).

Known results for compounds:
{"COMPOUND": "CCOC(=O)CCCOc1cc2oc(-c3ccc(C(C)(C)C)cc3)c(C3=C(c4cc(-c5ccc(C(C)(C)C)s5)sc4-c4sc(C(C)(C)C)cc4C)C(F)(F)C(F)(F)C3(F)F)c2cc1OCCCC(=O)OCC [Chromophore S383]", "UNITS SYMBOL": "%", "Sulfone (%)": 0.0}
{"COMPOUND": "CC(=O)Oc1cc2oc(-c3ccc(C(C)(C)C)cc3)c(C3=C(c4cc(-c5ccc(C(C)(C)C)s5)sc4-c4ccc(C(C)(C)C)s4)C(F)(F)C(F)(F)C3(F)F)c2cc1OC(C)=O [Chromophore S367]", "UNITS SYMBOL": "%", "Sulfone (%)": 0.0}

QUERY: What does the data say about its Sulfone (%)? Entry: CCOC(=O)CCCOc1cc2oc(-c3ccc(C(C)(C)C)cc3)c(C3=C(c4cc(-c5sc(C(C)(C)C)cc5C)sc4-c4sc(C(C)(C)C)cc4C)C(F)(F)C(F)(F)C3(F)F)c2cc1OCCCC(=O)OCC [Chromophore S384]
RESULT: 1.3

QUERY: What does the data say about its Sulfone (%)? Entry: CCOC(=O)CCCOc1cc2oc(-c3ccc(C(C)(C)C)cc3)c(C3=C(c4cc(-c5cc(C(C)(C)C)cs5)sc4-c4cc(C(C)(C)C)cs4)C(F)(F)C(F)(F)C3(F)F)c2cc1OCCCC(=O)OCC [Chromophore S386]
RESULT: 0.0

QUERY: What does the data say about its Sulfone (%)? Entry: CCOC(=O)CCCOc1cc2oc(-c3ccc(C(C)(C)C)cc3)c(C3=C(c4cc(-c5ccc(C(C)(C)C)s5)sc4-c4ccc(C(C)(C)C)s4)C(F)(F)C(F)(F)C3(F)F)c2cc1OCCCC(=O)OCC [Chromophore S374]
RESULT: 0.0
